# Procedure summary: xn = mol fraction of the nth substance listed, in the solute-free solvent
# Conditions used: 293.15 K; x2 = 0.2
Observation type: solubility (g/100 g solution)
Give bare numbers.

Past entries and their recorded results:
Reported solubility (g/100 g solution) of CC(C)C(=O)Nc1ccc([N+](=O)[O-])c(C(F)(F)F)c1 + CC(C)=O + CC(C)O : 40.1

Reported solubility (g/100 g solution) of CC(C)C(=O)Nc1ccc([N+](=O)[O-])c(C(F)(F)F)c1 + C1CCOC1 + CC(C)O : 38.8

Quick batch: solubility (g/100 g solution) for everything below.
1. Cl.NC1CCSC1=O (centres undefined) + CO + CC#N
2. CC(C)C(=O)Nc1ccc([N+](=O)[O-])c(C(F)(F)F)c1 + CCOC(C)=O + CC(C)O

Outgoing:
1: 0.525; 2: 36.8
